Origin of the recorded values: PubChem BioAssay

experiment: inhibition of 3D7 malaria parasite growth – strain 3D7 (AID 2306);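 further: 0% = DMSO wells and 100% = chloroquine plus artemisinin control wells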; settings: P. falciparum 3D7 erythrocytic growth, LDH absorbance, 72 h; at 2 µM; hits give high values
reportedProperty: growth inhibition (%)

compound | reportedProperty | observedMeasurement
O=S(=O)(Nc1cccc(CCN2CCC(N3CCCCC3)CC2)c1)c1ccc(Oc2ccccc2)nc1 | growth inhibition | 99
O=C(Nc1ccc(-c2nc3ccccc3[nH]2)cc1)c1ccc(S(=O)(=O)N2CCCCCC2)cc1 | growth inhibition | 97
N#Cc1cccc(C(=O)Nc2ccc(-c3cccc(CN4CCCC4)c3)cc2)c1 | growth inhibition | 101
Cc1nc(N)nc(N)c1-c1ccc(Br)c([N+](=O)[O-])c1 | growth inhibition | 95
CN1CCC(Oc2ccc(CN3CC[C@H](NC(=O)c4ccc(Cl)c(Cl)c4)C3)c3ccccc23)C1 (some centres undefined) | growth inhibition | 100
Oc1ccc(CCCNc2nc(NCc3ccccc3-c3ccccc3)nc(NC3CCNCC3)n2)cc1 | growth inhibition | 97
COc1cccc(-c2ccc3c(-c4ccc(F)cc4)cnc(N)c3c2)c1 | growth inhibition | 100
COc1ccc(CNCc2ccc(-c3ccc(-c4nc5ccc(C(F)(F)F)cc5[nH]4)cc3)cc2)cc1 | growth inhibition | 102
Cc1cc(N[C@@H](Cc2ccccc2)C(=O)NCCc2ccccc2)nc(NCCOc2ccccc2)n1 | growth inhibition | 95
COC(=O)c1ccc(N2CCN(CCCCNC(=O)c3ccc(NC(=O)c4ccc(Cl)cc4)cc3)CC2)c(OC)c1 | growth inhibition | 82
COc1ccc2nccc([C@@H](O)CN3CCC(NC(=O)c4cc5c(F)cc(F)cc5[nH]4)CC3)c2n1 | growth inhibition | 101
O=C(Nc1ccc(N2CCCCC2)c(Cl)c1)c1ccc(Br)o1 | growth inhibition | 94
O=C(Cn1cc(C(F)(F)F)cc(Cl)c1=O)N1CCN(S(=O)(=O)c2ccc(Cl)cc2)CC1 | growth inhibition | 99
Cc1ccc(C2(C)CN(CCCOc3cccc(-c4ccc(C(=O)NC(C)C)cc4)c3)CCO2)cc1 (centres undefined) | growth inhibition | 93
COc1cc2c(cc1S(=O)(=O)c1ccc(OCc3ccc(Cl)cc3)cc1)CCN(Cc1ccc(NC(C)=O)s1)CC2 | growth inhibition | 89
COc1ccc2nc3cc(Cl)ccc3c(NCCO)c2c1 | growth inhibition | 101
CCC(CC)(Cc1ccccc1)NC(=O)[C@H](CC1CCCCC1)Nc1ccc(C#N)c2ccccc12 | growth inhibition | 95
Cc1cc(C)cc(-n2c(C)cc(C=C3SC(=Nc4ccc(Cl)cc4)NC3=O)c2C)c1 | growth inhibition | 97
Oc1ccc(CCNc2nc(NCCCOc3ccccc3-c3cccnc3)nc(N3CCNCC3)n2)cc1 | growth inhibition | 92
